Tested on: DMS 114 small cell lung
procedure-summary: NCI tumour cell line growth inhibition, 48 h
measured-metric: TGI

Form: molecule = O=C1C(=Cc2ccc(F)cc2)C(=O)c2ccccc21 ; TGI = > 100 µM

Form: molecule = O=C(CCc1cc(-c2ccc(F)cc2)n[nH]1)N(Cc1ccccc1)Cc1ccccc1 ; TGI = > 100 µM

Form: molecule = Oc1ccc(O)c(-n2cccn2)c1-n1cccn1 ; TGI = > 100 µM

Form: molecule = CC(C)(C)CC(C)(C)NCC(O)COc1ccc(C(C)(C)c2ccc(OCC(O)CNC(C)(C)CC(C)(C)C)cc2)cc1 (stereo not given) ; TGI = 3.21 µM

Form: molecule = Cc1ccc(C)c(NC(=O)C(=O)Nn2c(=S)[nH]c3ccccc3c2=O)c1 ; TGI = > 100 µM

###

Tested on: MCF7 breast
procedure-summary: NCI tumour cell line growth inhibition, 48 h; in the data active = GI50 below about 0.43 µM; inactive = the rest
Just give me one of these, please: active, inactive

In this assay, the call recorded for O=C(N/N=C/c1ccc(N(CCCl)CCCl)cc1)c1ccc(C(=O)N/N=C/c2ccc(N(CCCl)CCCl)cc2)cc1 was what?
active

In this assay, the call recorded for CSc1nc2ccc(C)cc2cc1/C=C1/C=C(c2ccccc2)NC1=O was what?
inactive

In this assay, the call recorded for C1CC[N-]CC1.CC(=N\O)/C(C)=N/O.CC(=N\O)/C(C)=N/O.C[CH-]C(C)O.[Co+2] was what?
inactive

In this assay, the call recorded for N=C1C=C(N)C(=O)c2ccccc21 was what?
active

In this assay, the call recorded for N#Cc1cc2c(cc1Cl)SC(=Nc1ccccc1)N(S(=O)(=O)c1ccc(Br)s1)S2(=O)=O was what?
inactive

###

System: OVCAR-4 ovarian
procedure-summary: NCI tumour cell line growth inhibition, 48 h
measured-metric: TGI

Form: compound = C=C1C(=O)OC2(C)CCC1CC1OC1(C)CCC=C(C)CCC2O (stereo not given) ; TGI = > 100 µM

Form: compound = O=C1C=CC(=O)c2c(O)c(N(CCCl)CCCl)c(Cl)c(O)c21 ; TGI = 6.24 µM

Form: compound = CCCCCCCCCCCCCCCCCCNc1nc(=O)n(C2CC(OP(=O)(O)OCC3OC(n4cc(F)c(=O)[nH]c4=O)CC3O)C(CO)O2)cc1F (stereo not given) ; TGI = > 100 µM

Form: compound = O=C1c2cc3ncsc3cc2C(=O)c2c(O)ccc(O)c21 ; TGI = > 100 µM

Form: compound = Cc1c(C2CCSc3ccccc3N2)sc2ccccc12 (stereo not given) ; TGI = > 100 µM

Form: compound = Cc1nc(-n2nc(-c3ccccc3)cc2-c2ccccc2)sc1C(=O)CC(=O)C(=O)Nc1ccc(O)cc1 ; TGI = > 100 µM

Form: compound = Cc1ccc2c(=O)cc(-c3cccc(F)c3)[nH]c2n1 ; TGI = > 100 µM

Form: compound = O=S(=O)(Nc1ccc(Cl)c(Cl)c1)c1ccc(-c2cnc(C3CC3)o2)cc1 ; TGI = 20.6 µM

Form: compound = Cc1ccc(S(=O)(=O)N/N=C\c2c3ccccc3[n+](C)c3ccccc23)cc1 ; TGI = > 100 µM

Form: compound = COC(=O)C(/C(=N\O)C(=O)Nc1ccc(Br)cc1)c1nc2ccccc2[nH]c1=O (stereo not given) ; TGI = > 100 µM

Form: compound = C/C(=N\Nc1n[nH]c(=S)n1N)c1c(O)cc(C)oc1=O ; TGI = > 100 µM

Form: compound = NS(=O)(=O)c1ccc(NCc2nc3ccccc3[nH]2)cc1 ; TGI = > 100 µM

Form: compound = C=C(CN1CCN(c2ccc(F)c(Cl)c2)CC1)c1ccc(C(=O)Nc2ccccc2N)cc1 ; TGI = > 100 µM

Form: compound = CCOC(=O)CN1C(=O)C(=O)N(c2ccc(OC)c3ccccc23)C1=O ; TGI = > 100 µM

Form: compound = CC(C)c1cc(C(C)C)c(B(c2ccccc2)c2ccccc2)c(C(C)C)c1B(c1ccccc1)c1ccccc1 ; TGI = > 100 µM

Form: compound = C=Cc1cc(OC)c2c(c1)c(=O)oc1c2cc(OC)c2c(O)ccc(C3OC(C(C)O)C(O)C3O)c21 (stereo not given) ; TGI = 0.703 µM

Form: compound = CC1=NN2CCC(=O)N=C2S1 ; TGI = > 100 µM

Form: compound = COC(=O)/C=C\C(C#N)(C#N)N=Cc1ccc(Br)cc1 ; TGI = 23.7 µM

Form: compound = COc1cccc(N(CN2C(=O)CCC2OC)C(C)=O)c1 (stereo not given) ; TGI = > 100 µM

Form: compound = CCN1CCC(O)(/C=C/c2ccccc2)C(C(=O)/C=C/c2ccccc2)C1 (stereo not given) ; TGI = 8.01 µM

Form: compound = OCC(S)CS.[Bi] (stereo not given) ; TGI = 69.2 µM

Form: compound = CCOc1ccccc1NC(=O)C1=C(C)NC(C)=C(C(=O)Nc2ccccc2OCC)C1c1cccc([N+](=O)[O-])c1 ; TGI = > 100 µM

Form: compound = Cc1nccn1S(=O)(=O)c1ccc(Cl)cc1 ; TGI = > 100 µM

Form: compound = CCN(CC)C(=O)c1cc([N+](=O)[O-])c(=O)n2c1[nH]c1ccccc12 ; TGI = > 100 µM

Form: compound = Nc1c(C(=O)O)nnc2cc(Cl)ccc12 ; TGI = > 100 µM

Form: compound = O=[N+]([O-])c1ccc2nc(-c3ccc(Cl)cc3)[nH]c2c1 ; TGI = > 100 µM

Form: compound = C1CC[N-]CC1.CC(=N\O)/C(C)=N/O.CC(=N\O)/C(C)=N/O.C[CH-]C(C)O.[Co+2] ; TGI = > 100 µM

Form: compound = CN1C/C(=C\c2ccc(C(=O)O)cc2)C(=O)/C(=C/c2ccc(C(=O)O)cc2)C1 ; TGI = > 100 µM

Form: compound = CC1OC(=O)N2CCC=CC12 (stereo not given) ; TGI = > 100 µM

Form: compound = CN1C/C(=C\c2cccs2)C(=O)/C(=C/c2cccs2)C1 ; TGI = 55.4 µM

Form: compound = C[C@H]1CC[C@@H]2[C@@H](C)[C@H]3[C@H](C[C@H]4[C@@H]5CC=C6C[C@@H](O)CC[C@]6(C)[C@H]5CC[C@]34C)N2C1 ; TGI = > 100 µM

Form: compound = Cc1c2ccccc2c(C)n2c1nc1cc(Cl)c(Cl)cc12 ; TGI = > 100 µM

Form: compound = CS(=O)(=O)CCNCc1ccoc1-c1ccc2ncnc(Nc3ccc(OCc4ccccc4)cc3)c2c1 ; TGI = > 25 µM

Form: compound = O/N=C1\C(=C\c2ccc3c(c2)OCCO3)CCCC1C(NO)c1ccc2c(c1)OCCO2 (stereo not given) ; TGI = > 100 µM

Form: compound = COc1ccc(/C=C2\OC(=O)C(Cl)=C2c2ccc(OC)c(Cl)c2)cc1 ; TGI = 51.8 µM
